A short record of pIC50 observed with FXa (Homo sapiens, UniProt P00742) follows.
Sequence (P00742 235-488 limits assumed): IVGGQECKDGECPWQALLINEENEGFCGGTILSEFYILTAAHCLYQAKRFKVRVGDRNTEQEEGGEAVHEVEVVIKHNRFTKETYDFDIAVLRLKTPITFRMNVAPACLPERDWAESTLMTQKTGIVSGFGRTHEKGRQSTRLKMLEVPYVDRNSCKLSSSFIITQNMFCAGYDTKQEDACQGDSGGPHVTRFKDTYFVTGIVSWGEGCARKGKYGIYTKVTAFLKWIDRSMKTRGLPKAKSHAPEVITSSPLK
Sequence (P00742 41-179 partner limits assumed): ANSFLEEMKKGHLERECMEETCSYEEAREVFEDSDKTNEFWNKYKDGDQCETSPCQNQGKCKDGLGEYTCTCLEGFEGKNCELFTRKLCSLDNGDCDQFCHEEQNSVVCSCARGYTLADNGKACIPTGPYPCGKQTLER
pIC50: −log10 of the molar value.
experimentalEndpoint: pIC50

molecule | experimentalEndpoint | result
Cc1cncc(CNC(=O)c2nn(-c3cccc(Cl)c3)c3c2CCN(c2ccc4c(c2)CN(CCO)CC4)C3=O)c1 | pIC50 | 4.40 to 5.00
Cc1cc(CNC(=O)c2nn(-c3cccc(Cl)c3)c3c2CCN(c2cc4c(cn2)CCN(CCO)C4)C3=O)nn1C | pIC50 | 4.40 to 5.00
Cc1nc2c(C(=O)NCC3CC3)nn(-c3cccc(Cl)c3)c2c(=O)n1-c1ccc2c(c1)C(=O)N(C)CC2 | pIC50 | < 4.40
O=C(NCC1CCOC1)c1nn(-c2cccc(Cl)c2)c2c1CCN(c1ccc3c(c1)C(=O)N(CCO)CC3)C2=O (stereo not shown) | pIC50 | < 4.40
CCNC(=O)c1nn(-c2cccc(C)c2F)c2c1CCN(c1ccc3c(c1)C(=O)N(C)CC3)C2=O | pIC50 | < 4.40
CCCN1CCc2ccc(N3CCc4c(C(=O)NCC5CC5)nn(-c5cccc(Cl)c5)c4C3=O)cc2C1=O | pIC50 | < 4.40
CN1CCc2ccc(N3CCc4c(C(=O)NC5(CO)CC5)nn(-c5cccc(Cl)c5)c4C3=O)cc2C1=O | pIC50 | 4.40 to 5.00
CN1CCc2ccc(N3CCc4c(C(=O)N[C@H]5CCOC5)nn(-c5cccc(Cl)c5)c4C3=O)cc2C1=O | pIC50 | < 4.40
Cc1ccncc1CNC(=O)c1nn(-c2cccc(Cl)c2)c2c1CCN(c1cc3c(cc1F)CCN(CCO)C3)C2=O | pIC50 | 4.40 to 5.00
COc1cccnc1CNC(=O)c1nn(-c2cccc(Cl)c2)c2c1CCN(c1ccc3c(c1)C(=O)N(C)CC3)C2=O | pIC50 | < 4.40
CCN1CCc2ccc(N3CCc4c(C(=O)NCc5ccccc5)nn(-c5cccc(Cl)c5)c4C3=O)cc2C1 | pIC50 | 5.00 to 5.52
Cc1ccc(CNC(=O)c2nn(-c3cccc(Cl)c3)c3c2CCN(c2ccc4c(c2)C(=O)N(C)CC4)C3=O)nn1 | pIC50 | < 4.40
O=C(NCC1CC1)c1nn(-c2cccc(Cl)c2)c2c1CCN(c1cc(F)c3c(c1)CN(CCO)CC3)C2=O | pIC50 | < 4.40
CCNC(=O)c1nn(-c2cc(Cl)cc(CO)c2)c2c1CCN(c1ccc3c(c1)C(=O)N(C)CC3)C2=O | pIC50 | < 4.40
O=C(c1nn(-c2cccc(Cl)c2)c2c1CCN(c1cccc(CN3CCCCC3)c1)C2=O)N1CCCC1 | pIC50 | < 4.00
O=C(NCC1CC1)c1nn(-c2cccc(Cl)c2)c2c1CCN(c1cc3c(cn1)CCN(CCO)C3)C2=O | pIC50 | < 4.40
Cc1cc(CNC(=O)c2nn(-c3cccc(Cl)c3)c3c2CCN(c2ccc4c(c2)C(=O)N(CCO)[C@H](C)CO4)C3=O)nn1C | pIC50 | < 5.40
Cc1cc(CNC(=O)c2nn(-c3cccc(Cl)c3)c3c2CCN(c2ccc4c(c2)C(=O)N(CC(=O)O)CC4)C3=O)nn1C | pIC50 | < 5.40
Cc1cc(CNC(=O)c2nn(-c3cccc(Cl)c3)c3c(=O)n(-c4ccc5c(c4)C(=O)N(C)CC5)c(C)nc23)n[nH]1 | pIC50 | 4.40 to 5.00
COc1cncc(CNC(=O)c2nn(-c3cccc(Cl)c3)c3c2CCN(c2ccc4c(c2)C(=O)N(C)CC4)C3=O)c1 | pIC50 | 5.00 to 5.52
CN1CCc2ccc(N3CCc4c(C(=O)NC5CCOC5(C)C)nn(-c5cccc(Cl)c5)c4C3=O)cc2C1=O (stereo not shown) | pIC50 | < 4.40
CN1CCc2ccc(N3CCc4c(C(=O)NCC(=O)O)nn(-c5cccc(Cl)c5)c4C3=O)cc2C1=O | pIC50 | 4.40 to 5.00
Cc1ccncc1C(=O)NCc1nn(-c2cccc(Cl)c2)c2c(=O)n(-c3ccc4c(c3)CN(CCO)CC4)c(C)nc12 | pIC50 | 5.00 to 5.52
CN1CCc2ccc(N3CCc4c(C(=O)NC5COCC5O)nn(-c5cccc(Cl)c5)c4C3=O)cc2C1=O (stereo not shown) | pIC50 | < 4.40
Cc1ncccc1CNC(=O)c1nn(-c2cccc(Cl)c2)c2c1CCN(c1ccc3c(c1)C(=O)N(C)CC3)C2=O | pIC50 | < 4.40
Cc1cc(CNC(=O)c2nn(-c3cccc(Cl)c3)c3c2CCN(c2cc4c(cc2F)CCN(CCO)C4)C3=O)[nH]n1 | pIC50 | 4.40 to 5.00
Cc1ccncc1CNC(=O)c1nn(-c2cccc(Cl)c2)c2c1CCN(c1ccc3c(c1)C(=O)N(C)CC3)C2=O | pIC50 | < 4.40
O=C(NCc1ccn(C2CC2)n1)c1nn(-c2cccc(Cl)c2)c2c1CCN(c1ccc3c(c1)C(=O)N(CCO)CC3)C2=O | pIC50 | < 4.40

Source of measurements: patent US20260132132A1
